Origin of measurements: patent US20230115176A1

- assayed.target: Human C5 (Homo sapiens, UniProt P01031)
- Construct: purchased Complement Technology
- Sequence (P01031 19-1676): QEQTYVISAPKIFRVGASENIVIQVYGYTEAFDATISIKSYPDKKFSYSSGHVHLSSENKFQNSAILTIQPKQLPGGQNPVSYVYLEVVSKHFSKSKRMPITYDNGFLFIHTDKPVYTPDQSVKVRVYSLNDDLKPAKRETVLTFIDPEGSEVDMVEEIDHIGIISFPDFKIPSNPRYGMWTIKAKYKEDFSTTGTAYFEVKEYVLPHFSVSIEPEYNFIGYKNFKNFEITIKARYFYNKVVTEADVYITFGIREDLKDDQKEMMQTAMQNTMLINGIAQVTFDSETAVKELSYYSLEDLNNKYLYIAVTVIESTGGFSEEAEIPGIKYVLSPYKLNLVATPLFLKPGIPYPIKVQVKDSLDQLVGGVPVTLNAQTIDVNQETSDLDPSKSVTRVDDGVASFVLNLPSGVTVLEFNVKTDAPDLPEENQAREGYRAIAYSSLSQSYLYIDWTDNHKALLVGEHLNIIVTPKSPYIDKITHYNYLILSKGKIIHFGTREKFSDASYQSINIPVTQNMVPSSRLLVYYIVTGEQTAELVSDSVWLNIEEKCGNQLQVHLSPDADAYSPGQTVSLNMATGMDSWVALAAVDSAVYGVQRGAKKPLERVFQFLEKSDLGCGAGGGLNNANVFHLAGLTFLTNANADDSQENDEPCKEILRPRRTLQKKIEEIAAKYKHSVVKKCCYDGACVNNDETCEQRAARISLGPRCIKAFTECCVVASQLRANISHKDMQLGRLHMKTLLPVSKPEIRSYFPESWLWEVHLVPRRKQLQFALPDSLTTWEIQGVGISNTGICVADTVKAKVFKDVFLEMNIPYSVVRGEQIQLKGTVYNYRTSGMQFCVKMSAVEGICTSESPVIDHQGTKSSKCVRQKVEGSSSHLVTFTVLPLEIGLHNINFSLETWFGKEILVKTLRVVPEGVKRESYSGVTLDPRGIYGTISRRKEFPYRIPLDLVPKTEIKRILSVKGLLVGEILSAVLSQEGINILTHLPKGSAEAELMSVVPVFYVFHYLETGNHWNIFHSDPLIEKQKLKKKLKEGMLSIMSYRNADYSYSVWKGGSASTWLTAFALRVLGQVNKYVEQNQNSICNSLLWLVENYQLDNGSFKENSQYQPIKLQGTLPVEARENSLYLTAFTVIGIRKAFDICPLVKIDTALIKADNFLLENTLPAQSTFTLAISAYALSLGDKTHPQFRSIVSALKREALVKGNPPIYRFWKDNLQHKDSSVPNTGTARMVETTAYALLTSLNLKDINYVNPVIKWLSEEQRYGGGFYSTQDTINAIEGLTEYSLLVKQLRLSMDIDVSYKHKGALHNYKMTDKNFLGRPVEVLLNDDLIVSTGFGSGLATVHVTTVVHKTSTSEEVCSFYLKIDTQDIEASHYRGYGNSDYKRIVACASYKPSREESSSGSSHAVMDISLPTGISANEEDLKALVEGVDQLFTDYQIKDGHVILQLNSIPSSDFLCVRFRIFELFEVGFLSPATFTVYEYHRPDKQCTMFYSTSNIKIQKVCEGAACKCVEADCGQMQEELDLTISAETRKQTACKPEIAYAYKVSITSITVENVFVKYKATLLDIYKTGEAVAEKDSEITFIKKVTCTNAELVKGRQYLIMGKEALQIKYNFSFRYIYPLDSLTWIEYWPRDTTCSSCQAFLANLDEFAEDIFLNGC
- procedure.text: Red blood cell (RBC) hemolysis assay, luminescent (Example 13, Table 22); also: 1.5% C5-depleted human serum
- Assay type: cell-based
- test.settings: sheep EA cells, […] C5-depleted human serum, 0.5 nM human C5, 1 hour 37° C., luminescence
Label True when IC50 is strictly below 30 nM; otherwise label False.

Reference set (4 entries):
| molecule | assayed.target | discrete.label |
| --- | --- | --- |
| CCCCCOc1cc(N2CCCN(Cc3ccc(Cl)cc3OC)C2=O)ccc1OC [CU0166] | Human C5 (Homo sapiens, UniProt P01031) | False |
| COc1cc(CC(=O)NC2CCN(C(C)=O)C2)ccc1CN1CCCN(c2ccc(OC)c(OCCCC(C)(F)F)c2)C1=O (centres unmarked) [CU0142] | Human C5 (Homo sapiens, UniProt P01031) | True |
| CCCCCOc1cc(N2CCCN(Cc3cccc(N4CCN(C)CC4)c3F)C2=O)ccc1OC [CU0133] | Human C5 (Homo sapiens, UniProt P01031) | False |
| CCCCCOc1cc(N2CCCN(Cc3cccc4c3ccn4C3CCN(C4CC4)C3=O)C2=O)ccc1OC (centres unmarked) [CU0241] | Human C5 (Homo sapiens, UniProt P01031) | True |

// query Find out if reported IC50 for COc1ccc(N2CCCN(Cc3ccnc4c3ccn4CC(=O)N(C)C)C2=O)cc1OCCCC(C)(F)F [CU0262] is less than 30 nM
// result False

// query Find out if reported IC50 for COc1cc(CC(=O)N(C)C)ccc1CN1CCCN(c2ccc(OC)c(OCCCC(F)(F)C(F)(F)F)c2)C1=O [CU0214] is less than 30 nM
// result True

// query Find out if reported IC50 for CCCCCOc1cc(N2CCCN(Cc3ccnc4c3ccn4CC(=O)N3CCOC(CCO)C3)C2=O)ccc1OC (centres unmarked) [CU0046] is less than 30 nM
// result False
